meta.source: ChEMBL document CHEMBL1806361

experiment: Volume of distribution at steady state in dog at 1 mg/kg, po and 0.1 mg/kg, iv by LC/MS/MS; assay type: ADME, organism-based, Canis lupus familiaris; conditions: in vivo, read-out: Vdss

# MOL, Vd [L/kg]
rows = [
    ("Cc1ccc(-c2c(CN)c(CC(C)C)nc3ccc(N4CC(=O)NCC4=O)cc23)cc1.Cl.Cl", 1.49),
]

* * *

test: Solubility of the compound in water at pH 6.8 by HPLC analysis; type: physicochemical

# MOL, solubility
rows = [
    ("Cc1ccc(-c2c(CN)c(CC(C)C)nc3ccc(N4CC(=O)NCC4=O)cc23)cc1.Cl.Cl", "> 5000 µg/mL"),
]

* * *

experiment: Metabolic stability in rat liver microsomes at 1 uM after 60 mins by HPLC with UV detectors in presence of NADPH; type: ADME, Microsome; conditions: read-out: Stability

# MOL, microsomal CLint at 1 µM, µL/min/mg
rows = [
    ("Cc1ccc(-c2c(CN)c(CC(C)C)nc3ccc(N4CC(=O)NCC4=O)cc23)cc1.Cl.Cl", 96),
]

* * *

system: Canis familiaris; experiment: AUC in dog at 1 mg/kg, po by LC/MS/MS; format: ADME, organism-based, Canis lupus familiaris, Plasma; parameters: dose 1 mg/kg, route oral; conditions: in vivo
MEASUREMENT NAME: AUC

# MOL, ASSAY RESULT
records = [
    ("Cc1ccc(-c2c(CN)c(CC(C)C)nc3ccc(N4CC(=O)NCC4=O)cc23)cc1.Cl.Cl", "1410 ng·h/mL"),
]
